recorded-metric: melting point (°C)
One number for each entry, in °C.

As a guide, the following entries are already answered.
[
  {
    "molecule": "O=C(O)c1ccccc1Nc1cccc(C(F)(F)F)c1",
    "unit-annotation": "°C",
    "observed-value": 134
  },
  {
    "molecule": "COc1ccccc1Oc1ccccc1OC",
    "unit-annotation": "°C",
    "observed-value": 79.5
  },
  {
    "molecule": "CC1(C)C2CCC1(C)C(O)C2 (centres undefined)",
    "unit-annotation": "°C",
    "observed-value": 214
  },
  {
    "molecule": "ON=C(Cc1ccccc1)C(Cc1ccccc1)=NO",
    "unit-annotation": "°C",
    "observed-value": 193
  }
]

Go through the items and report each one's melting point.
1. O=C1OC(c2ccccn2)Cc2ccccc21 (centres undefined)
2. N[C@@H](CCCC(=O)O)C(=O)O
3. Ic1ccc(I)nc1
4. Oc1ccc(S)cc1

output:
156
206
155
34
